These entries and their values trace back to patent US20190359693A1.

Give VNA titer for every item shown.
- system: HA of H3N2 A/HK/1/68-MA (influenza A virus)
- assay-protocol: cell-based or functional assay
Respond with the bare value in nM.

// query What does the record list as VNA titer for SD1046 (VHH) VHH: EVQLVESGGGLVQAGDSLRISCAASGRTLSIYSMGWFRQAPGKEREFVATIGWNSGRTFYPDSLKGRFTISRDNARNTLYLQMNNLRPEDTAVYYCAAAKGPLRLSSQADYWGQGTQVTVSS ?
// result 26.4

// query Repeat for the following binder: SD1036 (VHH, llama sdAb) VHH: EVQLVESGGGLVQAGGSLKLSCAASGRTYAMGWFRQAPGKEREFVAHINALGTRTYYSDSVKGRFTISRDNAKNTEYLEMNNLKPEDTAVYYCTAQGQWRAAPVAVAAEYEFWGQGTQVTVSS
// result 73.2

// query Repeat for the following binder: SD1049 (VHH) VHH: EVQLVESGGGLVQAGGSLRLSCAASGRTLSLYSVGWFRQAPGKEREFVATIGWNSGRTFYVDSMKGRFTISRDNAKNTVYLQMNDLKVEDTAVYYCAAAKGPLRLSNQADYWGQGTQVTVSS
// result 76.1
